# System: TRPC4 (transient receptor potential cation channel C4 beta), mouse
# MEASUREMENT DESCRIPTION: potentiation of DAMGO EC20 TRPC4 response – cell-based, second round, Fluo-4, HEK293 TRPC4beta/mu-opioid, 1 µM, confirmation (AID 2554)
# CONDITIONS USED: DAMGO EC20, Fluo-4 calcium flux, at 1 µM
The source made the active and inactive calls.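 Rule for the calls: active = primary screen hit whose fluorescence ratio, in both repeats, exceeds the weak agonist control mean by 3 SD; inactive = the rest.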
Hi! Could you answer with just one of these? true = active, false = inactive

Some entries whose results are on file:
Cc1cc2cc(CN(Cc3cccs3)C(=S)NCc3ccco3)c(=O)[nH]c2cc1C : false
CN(CC(=O)Nc1sc2c(c1C#N)CCCCC2)Cc1nc2ccccc2c(=O)[nH]1 : false
Cc1ccc(O)c(CNc2nc3ccccc3[nH]2)c1 : false
Cc1ccc(C)n1-c1nnc(N2CCC(C(=O)NCCCN3CC(C)CC(C)C3)CC2)s1 (stereo not given) : false
CC(=O)Cn1ncc(N2CCOCC2)cc1=O : false
CN(C)C(CNC(=O)Cc1ccc([N+](=O)[O-])cc1)c1ccccc1 (stereo not given) : false
C=CCN1CCN(C(c2cccc(OC)c2OC)c2nnnn2CCC(C)C)CC1 (stereo not given) : false
CC1Cc2ccccc2N1C(=O)CSc1nc2c(c(=O)n(C)c(=O)n2C)n1Cc1ccc(F)cc1 (stereo not given) : true

For CCCc1nc2ccccc2n1Cc1ccccc1OC , what call appears in the results of this test? false

// return assay outcome for Cc1ccc(C(CNS(=O)(=O)c2ccc([N+](=O)[O-])cc2)N2CCN(C)CC2)cc1 (stereo not given) false

---

# System: transient receptor potential cation channel C4 beta (TRPC4), mouse
# MEASUREMENT DESCRIPTION: TRPC4 cation channel opening, second retest – cell-based, second round, Fluo4, HEK293 TRPC4beta/mu-opioid, 1 µM, confirmation (AID 2461)
# CONDITIONS USED: Fluo4 calcium fluorescence, at 1 µM
Activity calls are given as the source filed them.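 How the source made its calls: active means primary screen active and over 50% activation in each of two duplicate runs; inactive means the rest.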
Could you please pick one outcome from this set? 1 for active, 0 for inactive

Examples from the recorded data:
CNc1nc(SCc2ccccc2Cl)nc2c1CCCC2 : 0
Cc1ccc(O)c(CNc2nc3ccccc3[nH]2)c1 : 0
COc1cc(OC)c(OC)cc1CCC(C)NCCC(c1ccccc1)c1ccccc1 (stereo not drawn) : 0
CCC(C)NC(C(=O)Nc1ccc(Cl)c([N+](=O)[O-])c1)c1ccccc1 (stereo not drawn) : 0
NS(=O)(=O)c1ccc(CCNCc2ccccc2OCc2ccc(Cl)cc2)cc1 : 0
CC(C)Cc1cc(CN2CCCC(CO)(Cc3cccc(Cl)c3)C2)[nH]n1 (stereo not drawn) : 0
CC(=O)NC(CC(=O)NCC(c1ccco1)N(C)C)c1ccccc1 (stereo not drawn) : 1
CC(=O)C1=C(S(=O)(=O)c2ccc(C)cc2)CS(=O)(=O)C1 : 0

Which outcome did this test record for the compound OCCNCc1cc(Br)ccc1OCc1ccc(F)cc1 ? 0

# outcome recorded in this test, key = COc1ccc2c(Cl)c(-c3nnc4n3CCCCC4)sc2c1 0

Kindly provide the recorded test outcome for the following compound: CC(C)c1ccc(S(=O)(=O)/N=C2\C=C(NS(=O)(=O)c3ccccc3)C(=O)c3ccccc32)cc1 0

Tell me the assay call for Cc1cc(OCC(=O)NNC(=S)NC(=O)c2cccs2)ccc1Cl please. 0

In this assay, the call recorded for O=C1CC(NS(=O)(=O)c2cccs2)CN1c1ccccc1 (stereo not drawn) was what? 0

Outcome? CC(Nc1nc(N2CCNCC2)nc2ccccc12)c1ccccc1 (stereo not drawn) 0

Tell me the recorded outcome of this test for CN(Cc1cnn(C)c1)C(=O)c1ccc(OC2CCN(CCc3ccccc3)CC2)cc1 . 0

Kindly provide the recorded test outcome for the following compound: Cc1cccn2c(=O)c(/C=N/O)c(N3CCCC3)nc12 0

Can you look up the reported call for Cc1ccc(C)c(OCCCCN2CCNCC2)c1C for me? 0

For COC(=O)c1ccc(CSc2nc3ccccc3c(=O)n2CC(C)C)o1 , which call appears in the assay record? 0

Outcome? CCOC(=O)C1(CCCc2ccccc2)CCN(Cc2cnn(C)c2)CC1 0

Test call for this compound, please: O=c1oc2ccccc2c(O)c1/C=C1\C=Nc2ccccc21 0

Write down the call the test reported for this compound. Item: CCOc1ccc(-n2c(C)cc(/C=C3/C(=N)N4C(=NC3=O)SN=C4S(C)(=O)=O)c2C)cc1 0

What did the test return for CCOc1cc(CNCCCN2CCOCC2)cc(Br)c1OCC(=O)Nc1cccc(C(F)(F)F)c1 ? 0

Recorded call for CC1CCCN1CC#CC(O)(c1ccccc1)c1ccccc1 (stereo not drawn) ? 0

---

# STUDY TARGET: Potassium voltage-gated channel subfamily KQT member 1 (Homo sapiens) (UniProt P51787)
# Sequence (P51787 whole entry, looked up): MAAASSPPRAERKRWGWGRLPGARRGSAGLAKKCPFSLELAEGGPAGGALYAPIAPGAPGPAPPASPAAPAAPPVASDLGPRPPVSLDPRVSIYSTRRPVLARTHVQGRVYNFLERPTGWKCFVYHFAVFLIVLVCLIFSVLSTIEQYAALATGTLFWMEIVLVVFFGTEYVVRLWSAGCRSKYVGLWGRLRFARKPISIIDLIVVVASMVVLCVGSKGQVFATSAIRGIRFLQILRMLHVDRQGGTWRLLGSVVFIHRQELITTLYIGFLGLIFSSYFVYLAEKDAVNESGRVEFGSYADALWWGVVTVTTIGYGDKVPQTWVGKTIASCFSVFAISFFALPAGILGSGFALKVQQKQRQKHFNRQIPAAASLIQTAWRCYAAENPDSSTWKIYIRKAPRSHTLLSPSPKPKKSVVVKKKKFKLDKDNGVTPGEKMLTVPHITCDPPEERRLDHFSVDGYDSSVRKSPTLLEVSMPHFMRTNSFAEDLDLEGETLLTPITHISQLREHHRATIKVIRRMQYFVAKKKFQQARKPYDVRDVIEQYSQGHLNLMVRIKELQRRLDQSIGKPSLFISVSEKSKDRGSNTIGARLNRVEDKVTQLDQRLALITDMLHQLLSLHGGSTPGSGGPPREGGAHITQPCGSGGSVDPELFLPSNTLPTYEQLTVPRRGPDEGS
# MEASUREMENT DESCRIPTION: KCNQ1 activation in stable CHO cells – cell-based, FluxOR thallium flux, selectivity assay for KCNQ2 potentiator project, confirmation (AID 2283);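 note: 0% = vehicle mean plus 3 SD and 100% = vehicle minus unstimulated blank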
# CONDITIONS USED: FluxOR thallium flux fluorescence, at 10 µM, beyond 3SD, as % of vehicle-control signal
The list shows a part of the results. Calls of active or inactive are those of the source.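 Rule for the calls: active = fluorescence ratio rise of at least 3 SD of vehicle wells above their mean, in both replicate wells; inactive = the rest.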
Valid outcomes are listed here; reply with one: active, inactive

Reference set (10 entries):
CCOC(=O)c1sc(=S)n2c1[nH]c(=O)c1ccc(C(=O)OC)cc12 : active
CCN(CC(=O)NC(=O)NCc1ccccc1)Cc1nc2ccccc2c(=O)[nH]1 : inactive
CCOC(=O)c1c(NC(=S)NC)sc2c1CCCC2 : inactive
C/C(=N\NC(=O)c1ccoc1C)c1ccccc1O : inactive
CCC1(C)Cc2c(sc3nnn(CC(=O)Nc4ccc(Cl)cc4)c(=O)c23)CO1 (configuration not stated) : active
CCc1ccccc1NC(=O)[C@@H]1CCC(=O)N1C1OC(=O)c2c1ccc(OC)c2OC (some centres not stated) : active
CCCn1c(C2CCCN2c2nc(-c3ccc(C)cc3)cs2)nc2cc(Cl)c(N3CCCCC3)cc21 (configuration not stated) : inactive
CC(NC(=O)Nc1cccc([N+](=O)[O-])c1)c1ccc2c(c1)OCO2 (configuration not stated) : active
COc1cccc(NC(=O)C2C(c3ccccc3)C2(Cl)Cl)c1 (configuration not stated) : active
S=C(NCc1ccc(Cl)cc1)NC12CC3CC(CC(C3)C1)C2 : inactive

Test call, this compound: CSc1nnc(NC(=O)c2nc(S(=O)(=O)Cc3ccc(C)cc3)ncc2Cl)s1 inactive

Per the records of this test, what outcome belongs to CC(C)Cc1nnc(NC(=O)CCc2ccccc2)s1 ? inactive

Record request — test call for O=C(Nc1ccc(Oc2ccccc2)cc1)c1ccco1 active

Recorded test outcome, item Cc1cc2cc3c(cc2nc1SCC(=O)Nc1c(C)cccc1C)CCC3 active

# outcome recorded in this test, key = Cc1cccc(NC(=O)c2nc(S(=O)(=O)Cc3ccccc3)ncc2Cl)c1 inactive

Short answer needed: outcome of this test for COc1ccc(C(=O)Nc2ncc3c(n2)-c2ccccc2CC3)cc1 ? active

Hi team, can someone confirm the assay call for O=c1c2cc(Br)ccc2nc(-c2cccc(Cl)c2)n1O ? active

Assay outcome for Cc1cccc(NC(=S)NC(=O)c2ccc(Br)o2)c1 : what was it? inactive

Please state the recorded outcome for this compound: Cc1[nH]n(-c2cccc(Cl)c2)c(=O)c1/C=N/n1c(C)nc2ccccc2c1=O inactive

Write down the call the test reported for this compound. Item: CCCCNC(=O)Nc1c(C)cc(SC#N)cc1C active

What classification did FC(F)(F)c1cccc(NC(=S)Nc2cccc(Cl)c2)c1 end up with in this test? inactive

Assay result, entry Cc1cccc(NC(=O)CSC(N)=O)c1C — outcome? inactive

Identify the outcome logged in this assay for the compound shown: CC(C)(C)C1CCC(C(=O)NCC(c2cccs2)N2CCOCC2)CC1 (configuration not stated) inactive

Short answer needed: outcome of this test for CCC1(C)Cc2c(sc3[nH]c(=S)n(Cc4ccccc4)c(=O)c23)CO1 (configuration not stated) ? inactive

Lab log entry: COc1ccc(NC(=O)CCCC2CCCCC2)c(OC)c1 — outcome as called in the assay? inactive

For CCn1c2ccccc2c2cc(NC(=O)CNC)ccc21 , which call appears in the assay record? inactive

Per the assay record, what outcome was assigned to Cc1ccc(/C=N/NC(=O)c2cc3ccccc3cc2O)o1 ? inactive

Which outcome was assigned to O=C(NNC1=C(C(=O)C(F)(F)F)CCC1)c1ccncc1 in this test? inactive

---

# STUDY TARGET: Short transient receptor potential channel 4 (Mus musculus)
# MEASUREMENT DESCRIPTION: blockers of DAMGO-evoked TRPC4 calcium flux – cell-based, Fluo4, HEK293 TRPC4beta/mu-opioid, confirmation (AID 2636)
# CONDITIONS USED: at 10 µM
Calls of active or inactive are those of the source.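 How the source made its calls: active means calcium signal cut by more than 3 SD below the full-agonist control yet still positive, in both repeats and the earlier primary screen; inactive means the rest.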
Form entry, call: pick from active, inactive

Please review the following examples before continuing.
CC(C)Cc1nc(Cl)c(C#N)c2c1CCCC2 : inactive
CCCC1=C(C(=O)OCC)C(c2cc(Cl)cc(OC)c2OCC(=O)OCC)NC(=O)N1 (stereo unspecified) : inactive
COCCn1nnnc1C(c1cc2ccc(OC)cc2[nH]c1=O)N1CCN(C2CCCCC2)CC1 (stereo unspecified) : inactive
COc1ccc(-c2cc(C3CCN(c4cc(Cl)nc(N)n4)CC3)[nH]n2)cc1 : inactive
Cc1cc(Cl)c2oc(C(=O)N(C)Cc3nccn3C)c(C)c2c1 : active

Which outcome did this test record for the molecule Fc1ccc(CN2CCC(Cc3ccccc3)CC2)cc1F ? active
